// provenance: patent US20240287138A1

Molecular target: T1, TNFR1 on THP-1 Lucia NF-kB reporter cells (UniProt P19438 30-455, limits assumed)
T1 sequence (looked up): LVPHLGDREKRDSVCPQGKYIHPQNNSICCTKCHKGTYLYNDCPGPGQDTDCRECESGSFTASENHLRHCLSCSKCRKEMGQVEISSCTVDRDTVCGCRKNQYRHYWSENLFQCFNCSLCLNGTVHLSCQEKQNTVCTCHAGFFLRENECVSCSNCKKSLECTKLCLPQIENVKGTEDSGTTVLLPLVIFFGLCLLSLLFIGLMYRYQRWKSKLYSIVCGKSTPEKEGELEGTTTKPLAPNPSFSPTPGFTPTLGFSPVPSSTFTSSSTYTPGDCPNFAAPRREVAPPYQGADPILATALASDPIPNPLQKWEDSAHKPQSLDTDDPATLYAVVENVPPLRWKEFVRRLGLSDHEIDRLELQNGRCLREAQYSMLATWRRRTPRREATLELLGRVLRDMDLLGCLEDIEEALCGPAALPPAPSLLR
Experiment: cell-based or functional assay
Square brackets hold non-standard residues; d marks the D form. Primed or numbered codes have the meaning given here. Trp(βS-Me,7-OMe) = COc1cccc2c([C@H](C)[C@H](N)C(=O)O)c[nH]c12; Phe(2-F,4-COOH) = N[C@@H](Cc1ccc(C(=O)O)cc1F)C(=O)O; Trp(7-CN) = N#Cc1cccc2c(C[C@H](N)C(=O)O)c[nH]c12; Trp(7-Cl) = N[C@@H](Cc1c[nH]c2c(Cl)cccc12)C(=O)O; Phe(4-CONH2) = NC(=O)c1ccc(C[C@H](N)C(=O)O)cc1; Phe(4-COOH) = N[C@@H](Cc1ccc(C(=O)O)cc1)C(=O)O; 4Pal = N[C@@H](Cc1ccncc1)C(=O)O; NMeE = CN[C@@H](CCC(=O)O)C(=O)O; dHyp = O=C(O)[C@H]1C[C@H](O)CN1; Phe4AcPip = not defined here; Pipt5OH = not defined here; αMeS = C[C@](N)(CO)C(=O)O; Nle = CCCC[C@H](N)C(=O)O; Pip2c = not defined here; Ahp′ = not defined here; Sar = CNCC(=O)O
measuredAttribute: THP-1 IC50 (nM)
Give bare numbers, in nM.

binder: cyclo([bhcLeu][Nle][4Pal][Pip2c]W[NMeE]N[Phe(2-F,4-COOH)][Trp(7-Cl)][αMeS][Phe(4-COOH)]Y[Sar][Trp(βS-Me,7-OMe)]) (reading uncertain; also: printed as cyclo(bhcLeu-Nle-4Pal-Pip2c-W-NMeE-N-Phe2F4COOH-Trp7Cl-aMeS-Phe4COOH-Y-Sar-SbMeW7OMe)) [SEQ ID NO. 108]
unitName: nM
THP-1 IC50: 1.2
--
binder: cyclo([bhcLeu][Nle][4Pal][Pip2c]W[NMeE]N[4Pal][Trp(7-Cl)][αMeS][Phe(4-COOH)][Phe4AcPip][Sar][Trp(βS-Me,7-OMe)]) (reading uncertain; also: printed as cyclo(bhcLeu-Nle-4Pal-Pip2c-W-NMeE-N-4Pal-Trp7Cl-aMeS-Phe4COOH-Phe4AcPip-Sar-SbMeW7OMe)) [SEQ ID NO. 63]
unitName: nM
THP-1 IC50: 1.2
--
binder: cyclo([bhcLeu][Ahp′][SbMe4Pal]HW[dHyp]N[Phe(4-COOH)][Trp(7-CN)][αMeS][Phe(4-CONH2)][Phe(4-CONH2)][Sar][Trp(βS-Me,7-OMe)]) (reading uncertain; also: printed as cyclo(bhcLeu-Ahp-SbMe4Pal-H-W-dProt4OH-N-Phe4COOH-Trp7CN-aMeS-Phe4CONH2-Phe4CONH2-Sar-SbMeW7OMe)) [SEQ ID NO. 98]
unitName: nM
THP-1 IC50: 1.5
--
binder: cyclo([bhcLeu][Nle][4Pal][Pip2c]W[NMeE]N[Phe4COOMe][Trp(7-Cl)][αMeS][Phe(4-COOH)]Y[Sar][Trp(βS-Me,7-OMe)]) (reading uncertain; also: printed as cyclo(bhcLeu-Nle-4Pal-Pip2c-W-NMeE-N-Phe4COOMe-Trp7Cl-aMeS-Phe4COOH-Y-Sar-SbMeW7OMe)) [SEQ ID NO. 117]
unitName: nM
THP-1 IC50: 2.1
--
binder: cyclo([bhcLeu][Nle][4Pal][Pipt5OH]W[dHyp][SbOHAsn][4Pal][Trp(7-CN)][αMeS][Phe(4-CONH2)][Phe(4-COOH)][Sar][Trp(βS-Me,7-OMe)]) (reading uncertain; also: printed as cyclo(bhcLeu-Nle-4Pal-Pipt5OH-W-dProt4OH-SbOHAsn-4Pal-Trp7CN-aMeS-Phe4CONH2-Phe4COOH-Sar-SbMeW7OMe)) [SEQ ID NO. 25]
unitName: nM
THP-1 IC50: 0.8

Would you kindly look at the next entry?
## Task Would you mind telling me what THP-1 IC50 value was observed for cyclo([bhcLeu][hL][4Pal][Pip2c]W[NMeE]N[4Pal][Trp(7-Cl)][αMeS][Phe(4-COOH)]Y[Sar][Trp(βS-Me,7-OMe)]) (reading uncertain; also: printed as cyclo(bhcLeu-hL-4Pal-Pip2c-W-NMeE-N-4Pal-Trp7Cl-aMeS-Phe4COOH-Y-Sar-SbMeW7OMe)) [SEQ ID NO. 137] ?
## Result 1.3
